# assayed-target: G810R mutant RET kinase (Homo sapiens, UniProt P07949, G810R)
# test-description: biochemical
pIC50: −log10 of the molar value.
recorded-metric: pIC50

Nc1ncnc2c1c1c(n2C2CCOC2)CCC(=O)c2c-1noc2C1CC1 (centres unmarked)	6.68
Nc1ncnc2c1c1c(n2[C@H]2C[C@H](CO)C2)CCC(O)c2c-1noc2C1CC1 (some centres unmarked)	6.82
COC(=O)c1ccc2c(Cl)c3n(c2c1)C(=O)NCc1c-3c2c(N)ncnc2n1C(C)C	6.38

A. CC(C)n1c2c(c3c(N)ncnc31)-c1noc(C3CC3)c1S(=O)(=O)N(C)C2
B. Cc1cc(NC(=O)c2ccc3cc4n(c3c2)CCCc2c-4c3c(N)ncnc3n2C(C)C)nn1C
C. CC(C)n1c2c(c3c(N)ncnc31)-c1cc3ccc(Cl)cc3n1C(=O)NC2
D. Nc1ncnc2c1c1c(n2C(CF)CF)CC[C@H](O)c2c-1noc2C1CC1 (single isomer, unassigned)
E. CC1Cc2c(c3c(N)ncnc3n2C(C)C)-c2noc(C3CC3)c2C1=O (centres unmarked)
Descending sort on pIC50 required. Write the labels out in the order the request specifies. D, E, A, C, B

* * *

# assayed-target: HEK-293 cells expressing a G810R mutant RET Kif5b-RET fusion protein (Homo sapiens, UniProt P07949, G810R)
# Construct: KIF5B (N-terminal portion incl. coiled-coil); the other entry of the earlier key: KIF5B (P33176, Kinesin-1 heavy chain)
# Sequence (P07949 713-1063 G810R limits assumed): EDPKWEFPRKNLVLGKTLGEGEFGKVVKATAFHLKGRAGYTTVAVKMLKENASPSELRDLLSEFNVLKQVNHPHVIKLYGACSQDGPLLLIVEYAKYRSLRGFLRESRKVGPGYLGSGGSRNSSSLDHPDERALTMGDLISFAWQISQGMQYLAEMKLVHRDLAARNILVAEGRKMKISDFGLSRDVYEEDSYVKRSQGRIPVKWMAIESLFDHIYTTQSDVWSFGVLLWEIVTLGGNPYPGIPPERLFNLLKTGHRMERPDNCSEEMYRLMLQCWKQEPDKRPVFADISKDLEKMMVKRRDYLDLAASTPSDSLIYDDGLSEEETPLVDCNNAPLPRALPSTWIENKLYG
# test-description: RET G810R Mutant Cell Assay (phospho-RET Tyr1062)
# condition-info: HEK-293 Kif5b-RET G810R, 1 hour incubation, phospho-RET normalized to GAPDH
recorded-metric: IC50 (nM)

In the examples that follow, each entry is paired with its recorded IC50.
CC1Cc2c(c3c(N)ncnc3n2C(C)C)-c2noc(C3CC3)c2C1=O (stereo not shown)	157
CC(C)n1c2c(c3c(N)ncnc31)-c1noc(C3CC3)c1[C@@H](O)CC2 (single isomer, unassigned)	103
Nc1ncnc2c1c1c(n2-c2ccccc2)CNC(=O)c2c-1noc2C1CC1 [Example 110, 2,2,2-trifluoroacetate]	537
CC(C)n1c2c(c3c(N)ncnc31)-c1noc(C3CC3)c1C(=O)N(CC1CC1)C2	459

P. CC(C)n1c2c(c3c(N)ncnc31)-c1noc(C3CC3)c1[C@@H](O)[C@@H](C)C2 (relative stereo)
Q. COC(=O)c1ccc2c(Cl)c3n(c2c1)C(=O)NCc1c-3c2c(N)ncnc2n1C(C)C
R. CC(C)n1c2c(c3c(N)ncnc31)-c1noc(C3CC3)c1C(O)CC2 (racemic)
Provide the items ranked by increasing IC50. Write the labels out in the order the request specifies. R, Q, P

* * *

# assayed-target: G810R mutant RET kinase (Homo sapiens, UniProt P07949, G810R)
# test-description: biochemical
pIC50: −log10 of the molar value.
recorded-metric: pIC50

In the examples that follow, each entry is paired with its recorded pIC50.
CC(C)n1c2c(c3c(N)ncnc31)-c1noc(C3CC3)c1C(=O)N(C)C2	6.87
COC(=O)[C@H]1C[C@@H](n2c3c(c4c(N)ncnc42)-c2noc(C4CC4)c2C(O)CC3)C1 (some centres unmarked)	7.28
CC(=O)N1Cc2c(noc2C2CC2)-c2c(n(C(C)C)c3ncnc(N)c23)C1 [Example 36, 2,2,2-trifluoroacetate]	6.89
CC(=O)Nc1ccc2cc3n(c2c1)CCCc1c-3c2c(N)ncnc2n1C(C)C	5.99
COc1ccc(-n2c3c(c4c(N)ncnc42)-c2noc(C4CC4)c2C(O)CC3)cn1 (centres unmarked) [Example 114, 2,2,2-trifluoroacetate]	6.36

1. Nc1ncnc2c1c1c(n2C2CCC2)CCC(O)c2c-1noc2C1CC1 (centres unmarked)
2. CC(C)n1c2c(c3c(N)ncnc31)-c1ccc(C3CC3)cc1C(=O)NC2
Which entry has a larger number for pIC50, 1 or 2 ? Mark your selection by writing its label. 1
(1: 7.21, 2: 6.57)

* * *

# assayed-target: G810R mutant RET kinase (Homo sapiens, UniProt P07949, G810R);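 also: HTRF KinEASE-TK enzymatic assay with 1 nM recombinant RET G810R, 1 h at 22 °C, dual-wavelength ratiometric readout, 100% control without compound, 0% from pre-quenched reactions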
# test-description: biochemical
recorded-metric: IC50 (nM)

A. CC(C)n1c2c(c3c(N)ncnc31)-c1cc3ccc(C(=O)NC4(C)CC4)cc3n1CCC2
B. CC(C)n1c2c(c3c(N)ncnc31)-c1cc3ccc(C(=O)Nc4ccn(-c5ccccc5)n4)cc3n1CCC2
I'm curious whether A or B has the smaller IC50 number. Which is it? Mark your selection by writing its label. A
(A: 478 nM, B: 1610 nM)

P. CNC1CCc2c(c3c(N)ncnc3n2C(C)C)-c2noc(C3CC3)c21 (stereo not shown)
Q. CC(C)n1c2c(c3c(N)ncnc31)-c1noc(C3CC3)c1[C@@H](O)[C@H](C)C2 (single isomer, unassigned) [Example 64]
R. Nc1ncnc2c1c1c(n2[C@@H]2C[C@@H](O)[C@@H](O)C2)CCC(O)c2c-1noc2C1CC1 (stereo partly shown)
S. CNC(=O)c1ccc2cc3n(c2c1)C(=O)NCc1c-3c2c(N)ncnc2n1C(C)C
Descending sort on IC50 required. Write the labels out in the order the request specifies. S, P, Q, R

* * *

# assayed-target: RET kinase Wild Type (Homo sapiens);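 also: HTRF kinase activity assay on RET enzyme, 1 h reaction at 22 °C, dual-wavelength readout as percent of control, DMSO-only wells as 100%, pre-quenched reactions as 0%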
# test-description: biochemical
pIC50: −log10 of the molar value.
recorded-metric: pIC50

CC(C)n1c2c(c3c(N)ncnc31)-c1noc(C3CC3)c1C(=O)N(CC1CC1)C2	7.77
CC(n1c2c(c3c(N)ncnc31)-c1noc(C3CC3)c1C(O)CC2)C(F)(F)F (stereo not shown)	7.85
CC(C)n1c2c(c3c(N)ncnc31)-c1cc3ccccc3n1C(=O)NC2	7.47

1. CC(=O)N1Cc2c(noc2C2CC2)-c2c(n(C(C)C)c3ncnc(N)c23)C1 [Example 36, 2,2,2-trifluoroacetate]
2. Nc1ncnc2c1c1c(n2C2CC(F)(F)C2)CCC(O)c2c-1noc2C1CC1 (stereo not shown) [Example 148, 2,2,2-trifluoroacetate]
3. Cc1cc(NC(=O)c2ccc3cc4n(c3c2)CCCc2c-4c3c(N)ncnc3n2C(C)C)nn1C
Provide the items ranked by increasing pIC50. Write the labels out in the order the request specifies. 3, 2, 1

P. CC(C)n1c2c(c3c(N)ncnc31)-c1noc(C3CC3)c1[C@H](O)[C@@H](C)C2 (single isomer, unassigned)
Q. CC(C)n1c2c(c3c(N)ncnc31)-c1cc3ccc(C#N)cc3n1C(=O)NC2
Which entry has a larger number for pIC50, P or Q ? Mark your selection by writing its label. P
(P: 7.37, Q: 6.93)

I. CC(C)n1c2c(c3c(N)ncnc31)-c1noc(C3CC3)c1C(=O)NC2 [Example 19, 2,2,2-trifluoroacetate]
II. CC(C)n1c2c(c3c(N)ncnc31)-c1cc3ccc(C(=O)Nc4ccccn4)cc3n1CCC2
Which entry has a larger number for pIC50, I or II ? Mark your selection by writing its label. I
(I: 7.35, II: 6.45)

a. CC(C)n1c2c(c3c(N)ncnc31)-c1noc(C3CC3)c1[C@@H](O)[C@@H](C)C2 (relative stereo)
b. Nc1ncnc2c1c1c(n2-c2ccccc2)CNC(=O)c2c-1noc2C1CC1 [Example 110, 2,2,2-trifluoroacetate]
c. CO[C@@H]1CCc2c(c3c(N)ncnc3n2C(C)C)-c2noc(C3CC3)c21 (single isomer, unassigned)
Descending sort on pIC50 required. Write the labels out in the order the request specifies. c, a, b

1. COc1ccc2c(c1)cc1n2C(=O)NCc2c-1c1c(N)ncnc1n2C(C)C
2. Nc1ncnc2[nH]c3c(c12)-c1noc(C2CC2)c1C(=O)NC3 [Example 66, 2,2,2-trifluoroacetate]
Which entry has a larger number for pIC50, 1 or 2 ? Mark your selection by writing its label. 1
(1: 6.41, 2: 5.75)

1. COCCn1ccc(NC(=O)c2ccc3cc4n(c3c2)CCCc2c-4c3c(N)ncnc3n2C(C)C)n1
2. CC(C)n1c2c(c3c(N)ncnc31)-c1noc(C3CC3)c1CN(CCO)C2 [Example 40, 2,2,2-trifluoroacetate]
I'm curious whether 1 or 2 has the smaller pIC50 number. Which is it? Mark your selection by writing its label. 2
(2: 6.21, 1: 7.57)

a. Nc1ncnc2c1c1c(n2C2CCC2)CCC(O)c2c-1noc2C1CC1 (stereo not shown)
b. Nc1ncnc2c1c1c(n2C2CCOC2)CCC(O)c2c-1noc2C1CC1 (stereo not shown)
Which entry has a larger number for pIC50, a or b ? Mark your selection by writing its label. a

a. COC(=O)c1ccc2c(Cl)c3n(c2c1)C(=O)NCc1c-3c2c(N)ncnc2n1C(C)C
b. Nc1ncnc2c1c1c(n2C2CCCC2)CCC(O)c2c-1noc2C1CC1 (stereo not shown) [Example 120]
I'm curious whether a or b has the smaller pIC50 number. Which is it? Mark your selection by writing its label. a
(a: 7.09, b: 8.00)
